# Assay Notes: qHTS assay to identify inhibitors of the type 1 interferon - major histocompatibility complex class I in skeletal muscle: Counter screen cell viability and HiBit confirmation (AID 1347412); note: % is set by controls: 0 for no effect and ±100 for the full control effect; nearly all actives have a fitted effect of over 60% in size
# Run Conditions: iHSKM muscle cells + IFN-b, HiBiT or CellTiter-Glo, 24 h; Viability; at 45.9 µM (top of the series)
Records with an inconclusive call do not appear.
Property: activity change, negative = inhibition (%)
# value in %; strip the unit string

response.value for COc1cc2c3c(n(CCCNCCO)c(=O)c2cc1OC)-c1cc2c(cc1C3=O)OCO2 (field: activity change, negative = inhibition) = -9.73

The recorded activity change, negative = inhibition for C=C1C(=O)O[C@H]2C[C@H](C)C(/C=C/C(C)=O)=CC[C@H]12 is 64.7

activity change, negative = inhibition in this record for Cc1cc2cc(Oc3ccnc(Nc4cccc(CS(=O)(=O)NCCN(C)C)c4)n3)ccc2[nH]1 : -27.6

Data point: CC(C)c1c(-c2ccccc2)nc2c(C#N)c[nH]n2c1=O ; activity change, negative = inhibition = -0.422

get_value(item= COc1cc(N2CCN(C)CC2)ccc1Nc1ncc2c(n1)N(C)c1ccccc1C(=O)N2C , readout=activity change, negative = inhibition) returns 22.1

// activity change, negative = inhibition lookup, molecule = O=C1NC(=O)[C@@H](c2c[nH]c3ccccc23)[C@H]1c1cn2c3c(cccc13)CCC2 , result: -10.9

For CN(C)CCOc1ccc(-c2nc(-c3ccc4c(c3)CC/C4=N\O)c(-c3ccncc3)[nH]2)cc1 the molecule record lists activity change, negative = inhibition as -15.1

Entry under test: COC1CC(C(=O)c2ccc3c(N)ncc(-c4ccc(-c5cnn(C)c5)cc4)c3n2)C1 (stereo unspecified) . Its activity change, negative = inhibition was 4.77

###

# Assay Notes: OV-SAHO Cancer Cell Toxicity qHTS against the NCATS CANVASS Library (AID 1347348); note: nearly all actives have a fitted effect of over 55% in size
# Run Conditions: OV-SAHO viability, CellTiter-Glo luminescence, 72 h; series mostly up to 38.3 µM
# Source text: Natural products and their derivatives continue to be wellsprings of nascent therapeutic potential. […] To address this issue, the Canvass library of natural products was assembled (https://tripod.nih.gov/canvass), in collaboration with academic and industry researchers, for quantitative high-throughput screening (qHTS) across a diverse set of cell-based and biochemical assays. […]
Records with an inconclusive call do not appear. Activity calls are given as the source filed them. Calls follow the shape of the dose curve; as a rule, active = well fitted cell-killing curve with a large enough effect; inconclusive = small, poorly fitted or top-dose-only effect; inactive = flat fitted curve, though single readings scatter.
Could you please pick one outcome from this set? Yes (active), No (inactive)

Worked set:
| Compound | Category |
| --- | --- |
| O=C1c2c(O)cc(O)cc2OC(c2ccc(O)cc2)C1O (stereo unspecified) | No |
| C[n+]1cc2cc(C(N)=O)[nH]c3c(=N)c(Cl)c(N)c1c23 | No |
| CC[C@@H]1C[C@@]2(CC)OC(=O)[C@@]3(CC)[C@H](CC)[C@@H]1[C@@H]23 | No |

-- ask Tell me the assay call for C=CC(CCCCC)C1C(=O)NC(=O)C1C(=O)C1C2C(C)CC(C(=O)O)CC2CC1(O)C(=O)/C=C/C (stereo unspecified) please.
-- reply No

-- ask Test call for this compound, please: C/C=C1/C2=CCCN3C(=O)O[C@H]([C@H]1O)[C@H]23
-- reply No

-- ask Per the records of this test, what outcome belongs to COc1cc2c(cc1OC)[C@@H](c1ccc3c(c1)OCO3)C(C)C(C)C2=O (stereo partly specified) ?
-- reply No

-- ask Fill in: this test's call for COC12OC1(C13OC1(OC)C(=O)c1cc4cc(C)oc(=O)c4c(O)c1C3O)C(O)c1c(cc3cc(C)oc(=O)c3c1O)C2=O (stereo unspecified) is ___
-- reply No

-- ask Give the logged outcome of this assay for the following compound: COc1ccc([C@@H]2c3cc4c(cc3C(=O)[C@H](C)C2C)OCO4)cc1OC (stereo partly specified)
-- reply No

-- ask # fetch the recorded call for O=Cc1ccc2n1C[C@]1(C[C@H](O)[C@@H](CO)O1)OC2 here
-- reply No

-- ask Can you look up the reported call for O=c1cc(-c2ccc(O)c(O)c2)oc2cc(O[C@@H]3O[C@H](CO)[C@@H](O)[C@H](O)[C@H]3O)cc(O)c12 for me?
-- reply Yes
